Provide the recorded IC50 for the entries that follow.
test system: EBC-1; experiment: Cell viability / antiproliferative assay (WST-8), EBC-1; type: cell-based, human; conditions: Homo sapiens; EBC-1 cells, 72 hours, WST-8; Table 2; read-out: EBC-1 IC50

IN: I have this compound here, N#Cc1cccc(-c2ccc(=O)n(Cc3cccc(-c4ncc(OCC5CCN(CC(=O)N6CCC(CN7CCN(c8ccc(NC9CCC(=O)NC9=O)cc8F)CC7)CC6)CC5)cn4)c3)n2)c1 (centres unmarked) , and I need its recorded IC50.
OUT: < 100 nM

IN: Now consider N#Cc1cccc(-c2ccc(=O)n(Cc3cccc(-c4ncc(OCC5CCN(CC(=O)N6CCN(CC7CCN(c8ccc(NC9CCC(=O)NC9=O)cc8F)CC7)CC6)CC5)cn4)c3)n2)c1 (centres unmarked) and answer again.
OUT: < 100 nM

###

target: c-MET (Homo sapiens, UniProt P08581); test: c-MET protein degradation (Simple Western), EBC-1; assay type: cell-based; design: assess the resolution of the compound of the present invention for c-MET expressed in cells; endogenous in cells; host or cells: EBC-1 (human lung cancer); settings: c-MET overexpressing lung cancer cell line EBC-1, treated 48 hours; Table 2
Sequence (P08581 25-1390): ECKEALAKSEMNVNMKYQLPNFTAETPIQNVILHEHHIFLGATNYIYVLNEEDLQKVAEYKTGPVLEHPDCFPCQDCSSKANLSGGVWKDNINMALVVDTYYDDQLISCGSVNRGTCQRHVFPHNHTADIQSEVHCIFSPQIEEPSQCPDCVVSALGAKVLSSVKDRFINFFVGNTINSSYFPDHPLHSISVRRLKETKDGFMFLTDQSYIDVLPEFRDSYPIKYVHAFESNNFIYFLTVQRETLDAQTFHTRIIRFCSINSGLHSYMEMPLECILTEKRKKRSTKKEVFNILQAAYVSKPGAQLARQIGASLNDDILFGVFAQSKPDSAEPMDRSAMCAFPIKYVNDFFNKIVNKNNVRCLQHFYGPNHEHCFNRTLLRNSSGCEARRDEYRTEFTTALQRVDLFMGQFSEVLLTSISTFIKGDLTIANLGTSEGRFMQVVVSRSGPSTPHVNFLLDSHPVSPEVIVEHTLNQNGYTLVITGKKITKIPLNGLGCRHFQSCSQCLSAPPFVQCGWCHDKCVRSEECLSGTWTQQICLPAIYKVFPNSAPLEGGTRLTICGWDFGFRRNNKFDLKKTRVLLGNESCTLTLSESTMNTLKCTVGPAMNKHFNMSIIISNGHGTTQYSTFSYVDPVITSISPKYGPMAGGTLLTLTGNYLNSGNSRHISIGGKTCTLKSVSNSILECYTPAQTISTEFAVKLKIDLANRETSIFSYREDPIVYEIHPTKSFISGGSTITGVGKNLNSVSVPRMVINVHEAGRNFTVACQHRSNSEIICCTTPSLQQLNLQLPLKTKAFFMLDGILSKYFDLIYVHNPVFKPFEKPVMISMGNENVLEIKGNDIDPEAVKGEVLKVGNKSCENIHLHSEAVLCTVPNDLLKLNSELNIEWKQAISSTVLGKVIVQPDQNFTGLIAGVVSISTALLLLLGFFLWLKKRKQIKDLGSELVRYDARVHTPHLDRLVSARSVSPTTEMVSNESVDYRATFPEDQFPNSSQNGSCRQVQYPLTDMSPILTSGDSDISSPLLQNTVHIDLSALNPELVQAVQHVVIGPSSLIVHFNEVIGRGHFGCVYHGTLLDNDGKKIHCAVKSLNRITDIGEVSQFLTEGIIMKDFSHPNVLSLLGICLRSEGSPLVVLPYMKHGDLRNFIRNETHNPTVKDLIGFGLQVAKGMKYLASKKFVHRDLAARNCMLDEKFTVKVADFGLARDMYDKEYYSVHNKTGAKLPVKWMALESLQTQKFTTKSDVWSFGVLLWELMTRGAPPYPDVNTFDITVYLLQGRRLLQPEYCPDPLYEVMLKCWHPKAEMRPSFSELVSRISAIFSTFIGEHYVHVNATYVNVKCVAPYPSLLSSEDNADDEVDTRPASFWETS
OBSERVABLE: DC50

IN: Requested read-out: DC50. Entry: N#Cc1cccc(-c2ccc(=O)n(Cc3cccc(-c4ncc(OCC5CCN(CCN6CCN(c7ccc(NC8CCC(=O)NC8=O)cc7F)CC6)CC5)cn4)c3)n2)c1 (stereo not drawn)
OUT: < 100 nM

IN: Another: N#Cc1cccc(-c2ccc(=O)n(Cc3cccc(-c4ncc(OCC5CCN(CC(=O)N6CCC(CN7CCN(c8ccc(NC9CCC(=O)NC9=O)cc8F)CC7)CC6)CC5)cn4)c3)n2)c1 (stereo not drawn)
OUT: < 100 nM

IN: Again, but for N#Cc1cccc(-c2ccc(=O)n(Cc3cccc(-c4ncc(OCC5CCN(CC6CN(c7ccc(NC8CCC(=O)NC8=O)cc7F)C6)CC5)cn4)c3)n2)c1 (stereo not drawn)
OUT: < 100 nM

IN: Try this compound too: N#Cc1cccc(-c2ccc(=O)n(Cc3cccc(-c4ncc(-c5cccc(CN6CCC(CN7CCN(c8ccc(NC9CCC(=O)NC9=O)cc8F)CC7)CC6)c5)cn4)c3)n2)c1 (stereo not drawn)
OUT: < 100 nM

IN: Next compound: N#Cc1cccc(-c2ccc(=O)n(Cc3cccc(-c4ncc(OCC5CCN(C(=O)CN6CCN(c7ccc(NC8CCC(=O)NC8=O)cc7F)CC6)CC5)cn4)c3)n2)c1 (stereo not drawn)
OUT: < 100 nM

IN: Proceed to N#Cc1cccc(-c2ccc(=O)n(Cc3cccc(-c4ncc(-c5cccc(CN6CCN(c7ccc(C8CCC(=O)NC8=O)cn7)CC6)c5)cn4)c3)n2)c1 (stereo not drawn)
OUT: < 100 nM

IN: Then what about the compound N#Cc1cccc(-c2ccc(=O)n(Cc3cccc(-c4ncc(OCC5CCN(c6ccc(NC7CCC(=O)NC7=O)cc6F)CC5)cn4)c3)n2)c1 (stereo not drawn) ?
OUT: < 100 nM

IN: Do the same for Cc1nn(C2CCC(=O)NC2=O)c(=O)c2cc(N3CCN(CCN4CCC(COc5cnc(-c6cccc(Cn7nc(-c8cccc(C#N)c8)ccc7=O)c6)nc5)CC4)CC3)ccc12 (stereo not drawn) please
OUT: > 1000 nM

IN: Another compound to check: N#Cc1cccc(-c2ccc(=O)n(Cc3cccc(-c4ncc(OCC5CCN(CC(=O)N6CCN(CC7CCN(c8ccc(NC9CCC(=O)NC9=O)cc8F)CC7)CC6)CC5)cn4)c3)n2)c1 (stereo not drawn)
OUT: < 100 nM

IN: Ok, now N#Cc1cccc(-c2ccc(=O)n(Cc3cccc(-c4ncc(OCC5CCN(CCN6CCN(c7ccc8c(=O)n(C9CCC(=O)NC9=O)ncc8c7)CC6)CC5)cn4)c3)n2)c1 (stereo not drawn)
OUT: > 1000 nM

IN: Also Cc1nn(C2CCC(=O)NC2=O)c(=O)c2ccc(N3CCN(CCN4CCC(COc5cnc(-c6cccc(Cn7nc(-c8cccc(C#N)c8)ccc7=O)c6)nc5)CC4)CC3)cc12 (stereo not drawn) , if possible.
OUT: < 100 nM

IN: Param item: N#Cc1cccc(-c2ccc(=O)n(Cc3cccc(-c4ncc(-c5cccc(CN6CCN(c7ccc(NC8CCC(=O)NC8=O)cc7F)CC6)c5)cn4)c3)n2)c1 (stereo not drawn)
OUT: < 100 nM
